Assay: NCI Yeast Anticancer Drug Screen. Data for the bub3 strain (AID 167)
Conditions: S. cerevisiae bub3 mutant strain, at 50.0 µM
Method: Growth inhibition of yeast strains with defined genetic alterations is measured as a screen for potential anti-cancer activity. Selected strains with alterations in DNA damage repair or cell cycle control were exposed to compounds and growth inhibition was measured relative to vehicle treated controls. The strain used in this assay is bub3
The panel holds about 79,000 compounds, 15% with a hit somewhere; the sample as a whole holds those more often. Activity calls are given as the source filed them. No stated cut-off is given here; in the data, active means growth inhibition above about 70%; inactive means the rest.
I would appreciate it if you answered using one of these outcomes: active, inactive

compound	label.value
CC(C)c1ccc(C(C)C)c(C(=O)CN2CCOCC2)c1	active
OC(CN(C1CCCCC1)C1CCCCC1)c1ccc(Cl)c(Cl)c1 (centres undefined)	inactive
Cc1cc(Cl)ccc1N	inactive

What did this assay record as the result for `CC(=O)Nc1nc(CCl)cs1` ?
inactive

// outcome(item) with item = Nc1ncnc2c1c(Cl)cn2C1OC(CO)C(O)C1O (centres undefined)
inactive

Just curious, what result did `CCC(=O)c1ccc(C)cc1` get here?
inactive

// return assay outcome for `ClCCn1c(/C=C/c2nc3ccccc3n2CCCl)nc2ccccc21`
inactive

Could you kindly confirm the outcome this assay logged for `CCCCCCCNC(=O)CBr` ?
inactive

Test call for this compound, please: CC(CN1CCCCCC1)C(C#N)(c1ccccc1)c1ccccc1 (centres undefined)
inactive

Recorded call for COC(C)CCOC(=O)Cc1ccccc1 (centres undefined) ?
inactive

What call does the record list for `CCOC(=O)C(C)(C)C(OP(=S)(OCC)OCC)=C(C)C` ?
inactive

What did this assay record as the result for CC(C)C(CC[C@@H](C)C1CC[C@@]2(C)C3=C(CC[C@]12C)[C@@]1(C)CC[C@H](O)C(C)(C)[C@@H]1CC3)S[As](C)C (some centres undefined) ?
inactive

Which result was noted for this compound in the test: CCc1ccccc1C(C(=O)NC1CN2CCC1CC2)c1ccsc1 (centres undefined)
inactive

Hi team, can someone confirm the assay call for `c1cc(CCN2CCCCC2)ccn1` ?
inactive

----------
Reported growth inhibition by item:
assay: NCI Yeast Anticancer Drug Screen. Data for the bub3 strain (AID 167); settings: S. cerevisiae bub3 mutant strain, at 50.0 µM (retest, dose inferred, filed as 5.0), stronger effect = higher value
About 79,000 compounds went through this panel and 15% of them were active in at least one assay; those are over-represented in the sample as a whole. The source made the active and inactive calls. Cut-off read from the data, not from the text of the source: active = growth inhibition above about 70%; inactive = the rest.

Take a look at these entries with their results.
compound	metric.name	experimental.result
CC(=O)[C-](I)C(C)=O.CC(=O)[C-](I)C(C)=O.CC(=O)[C-](I)C(C)=O.[Ru+3]	growth inhibition	90% (active)
C[C@]12Cc3cn4ncnc4nc3CC1CC[C@@H]1[C@@H]2CC[C@]2(C)C(O)CC[C@@H]12 (stereo partly drawn)	growth inhibition	97% (active)

Supply growth inhibition value. Item: CCOC(=O)C1C(O)=C(P(=O)(C2=C(O)C(C(=O)OCC)C(c3ccc(OC(C)=O)cc3)C(C(=O)O)C2=O)N(CCCl)CCCl)C(=O)C(C(=O)O)C1c1ccc(OC(C)=O)cc1 (stereo not drawn)
90% (active)

Read off the recorded growth inhibition for `CCCCCCCCCCC(=O)O.[Pb]`
-4% (inactive)

Give growth inhibition for COc1ccc(P2(=S)Oc3ccc(C(c4ccccc4)(c4ccccc4)c4ccccc4)cc3O2)cc1 (stereo not drawn)
98% (active)

The reported numbers originate from PubChem BioAssay (NCI).
